- Experimental target: Calmodulin-1 (Homo sapiens)
- Measurement description: CALM1 binders on microarrays, EGTA buffer, profiling panel, biochemical, small-molecule microarray, Cy5-labelled CALM1 (AID 1111);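 also: labelled calmodulin applied in Tris saline Tween buffer holding calcium plus EGTA and DTT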
- Measurement parameters: Cy5-CALM1 binding fluorescence, higher = more signal
Rule: Fulfilled for composite z-score not less than -0.1, Not fulfilled for anything less.

Molecule	Class label
COC(=O)c1c2oc(c1C(=O)OC)C(=O)N(Cc1ccccc1)Cc1cn(nn1)C[C@H](Cc1ccccc1)NC(=O)N[C@H](CO)CC2	Not fulfilled
COCCCNC(=O)[C@@]1(Sc2ccc(C)cc2)CC(=O)N(C2CCCCC2)[C@@H]1c1ccc(CO)cc1	Not fulfilled
CC(CO)N1C(=O)[C@@H]2[C@H]3C(=O)OCC=C[C@H]3OC23C=CCN(C(C)(C)C)C(=O)[C@@H]13 (stereo not given in full)	Not fulfilled
C=CCOC(=O)[C@H]1[C@@H]2C(=O)O[C@@H](c3ccccc3)[C@@H](c3ccccc3)N2[C@@H](c2ccc(OCCOC(=O)[C@@H]3C[C@@H]4C(=O)N[C@@H](CCCCNC(C)=O)C(=O)N4[C@@H]3c3ccc(O)cc3)cc2)[C@]12C(=O)Nc1ccc(I)cc12	Fulfilled
CC(C)(C)OC(=O)CC[C@]1(C(=O)NCC(O)CO)N=C(c2ccc(OCCCO)cc2)O[C@H]1c1ccccc1 (stereo not given in full)	Fulfilled

* * *

- Experimental target: E3 ubiquitin-protein ligase XIAP (Homo sapiens)
- Measurement description: XIAP binders, primary screen, biophysical, small-molecule microarray, fluorescence 635 nm (AID 1181);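 also: score merges 667 nm emission and signal to noise over triplicate slides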
- Measurement parameters: small-molecule microarray binding, higher = more signal

Molecule	composite z-score
O=C(NCc1ccccc1)[C@@H]1c2ccccc2C(=O)N(Cc2ccccc2C(F)(F)F)[C@H]1c1ccc(CO)cc1	-0.107
COc1ccc(CN(C2=CC[C@@]3(C(N)=O)C(=O)C(Cl)=C(Cl)C(=O)[C@@]3(C#N)C2)S(=O)(=O)c2ccc(Br)cc2)cc1	0.0937
O=C1C2C=CC(C(O)c3ccccc3)N(Nc3ccccc3F)C2C(=O)N1c1ccccc1 (configuration not stated)	0.258
COC(=O)c1c(CC[C@@H](CO)NC(=O)N2CCC[C@H]2Cn2cc(Cc3ccccc3)nn2)oc(C(C)=O)c1C(=O)OC	0
O=C(NCC(F)(F)F)[C@@H]1c2ccccc2C(=O)N(Cc2ccc(OC(F)(F)F)cc2)[C@H]1c1ccc(CO)cc1	0.104
COCCOC(=O)N1C(=O)[C@@]2(c3cc(C#CC4(O)CCCCCC4)ccc31)[C@H](c1ccc(O)cc1)N1[C@H](c3ccccc3)[C@H](c3ccccc3)OC(=O)[C@H]1[C@@H]2C(=O)NC[C@H](O)c1ccccc1	0.367
CCOc1cc(C(O)C2C=CC3C(=O)N(c4ccccc4)C(=O)C3N2Nc2ccc(C#N)cc2)ccc1O (configuration not stated)	-0.0438
CN(C)CCCNC(=O)[C@@]1(c2ccc([N+](=O)[O-])cc2)CC(=O)N(CC23CC4CC(CC(C4)C2)C3)[C@@H]1c1ccc(CO)cc1I	-0.0541
C=CC1c2cc(O)c(OC)cc2CCN1Cc1cc2c(cc1Br)OCO2 (configuration not stated)	-0.0525
COCCOC(=O)N1C(=O)[C@@]2(c3cc(C#CC4=CCCCC4)ccc31)[C@H](c1ccccc1OCCO)N1[C@H](c3ccccc3)[C@H](c3ccccc3)OC(=O)[C@H]1[C@@H]2C(=O)Nc1nc2ccccc2s1	0.0304
N#Cc1ccc(NN2C(C(O)c3ccc(F)cc3)C=CC3C(=O)N(c4ccccc4)C(=O)C32)cc1 (configuration not stated)	0.0651
[N-]=[N+]=NCc1ccccc1C[C@@]1(C(=O)N2CCCCC2)N=C(c2ccc(OCCCO)cc2)O[C@@H]1c1ccccc1	-0.279
COC(=O)[C@@]1(Cc2ccccc2)[C@H]2c3cc(C(=O)N(C)C)n(CCN4CNCC4=O)c3C[C@H]2CN1C(=O)c1ccccc1	0.404
COc1ccc(NC(=O)O[C@H]2[C@H](OC(=O)Nc3ccccc3)[C@H](OC(=O)Nc3ccccc3)[C@@H](OC)O[C@@H]2CO)cc1	-0.0599
Cc1ccc(S[C@]2(C(=O)NCC(F)(F)F)CC(=O)N(C3CCCCC3)[C@@H]2c2ccc(CO)cc2I)cc1	-0.12
COC(=O)[C@@]1(Cc2ccccc2N=[N+]=[N-])N=C(c2ccc(OCCCO)cc2)O[C@H]1c1ccccc1N=[N+]=[N-]	0.0296
COC(=O)[C@@]1(Cc2ccc(OC)cc2)[C@H]2c3cc(C(=O)N4CCCC4)n(Cc4c(-c5ccccc5)noc4C)c3C[C@H]2CN1C(=O)c1ccccc1	-0.0048
CCOC(=O)C[C@H]1[C@H](OC(=O)Cc2ccc3c(c2)OCO3)[C@@H](NC(=O)CC(C)C)c2cc(OCCCO)ccc2N1C(=O)Cc1ccc(OC)cc1	-0.0622
O=C(NCCCCCNC(=O)/C(Cc1ccccc1)=N/O)OCc1ccccc1	-0.253
[N-]=[N+]=Nc1ccccc1[C@H]1OC(c2ccc(OCCCO)cc2)=N[C@@]1(CCS(=O)(=O)c1ccccc1)C(=O)NCCN1CCOCC1	0.177
COc1cc2c(cc1OC)CN(C(=O)[C@@H]1[C@H]3C(=O)O[C@H](c4ccccc4)[C@H](c4ccccc4)N3[C@H](c3ccc(OCCO)cc3)[C@@]13C(=O)Nc1ccccc13)CC2	-0.0763
COCCOC(=O)N1C(=O)[C@@]2(c3cc(C#CC4=CCCCC4)ccc31)[C@H](C(N)=O)[C@H]1C(=O)O[C@H](c3ccccc3)[C@H](c3ccccc3)N1[C@@H]2c1ccccc1OCCO	0.0899

Every entry's value here was drawn from PubChem BioAssay.
